- assay.method.text: NCI Yeast Anticancer Drug Screen. Data for the rad50 strain (AID 155)
- test.context: S. cerevisiae rad50 strain growth inhibition; at 5.0 µM (retest, dose inferred, filed as 0.5)
About 79,000 compounds went through this panel and 15% of them were active in at least one assay; those are over-represented in the sample as a whole. Active and inactive are the calls of the source. Rule as the data show it: active = growth inhibition above about 70%; inactive = the rest.
# output must be one of active, inactive

These recorded examples may help you get a feel for the data.
COc1cccc2c1C(=O)c1c(O)c3c(c(O)c1C2=O)C[C@@](O)(/C(C)=N/NC(=O)c1ccc(Cl)c(Cl)c1)C[C@@H]3OC1CC(N)C(O)C(C)O1 (some centres undefined) | active
O=C(Nc1cccc(Cl)c1)c1ccc([N+](=O)[O-])cc1 | inactive
O=C(O)C1C(C(=O)Nc2ccc3c(c2)Cc2ccccc2-3)C2(Cl)C(Cl)=C(Cl)C1(Cl)C2(Cl)Cl (centres undefined) | inactive

Okay, now this compound:
What did this assay record as the result for Cc1cc(SCC(=O)c2ccc(Br)cc2)cc(C)[o+]1 ? inactive

Reference for the values: PubChem BioAssay (NCI)
